- Tested on: SF-295 CNS
- Assay Remarks: NCI tumour cell line growth inhibition, 48 h; in the data active = GI50 below about 0.43 µM; inactive = the rest
Form entry, call: pick from Yes (active), No (inactive)

q: Entry "COc1ccc(N(C)c2ncnc3occ(C)c23)cc1" : call = ?
a: Yes

q: Entry CCOC(=O)Oc1c(OC)cc(C(=O)NC2CCc3cc(OC)c(OC)c(OC)c3-c3ccc(SC)c(=O)cc32)cc1OC (centres undefined) : call = ?
a: Yes

q: Entry "C=C(C)[C@@]12OC3(/C=C/C=C/CCCCC)O[C@@H]1[C@@H]1[C@@H]4O[C@]4(CO)[C@@H](O)[C@]4(O)C(=O)C(C)=C[C@H]4[C@@]1(O3)[C@H](C)[C@H]2OC(=O)c1ccccc1" : call = ?
a: Yes

q: Entry "O=S(=O)([O-])c1ccc2c(c1)-c1nc-2nc2[n-]c(nc3nc(nc4[n-]c(n1)c1ccc(S(=O)(=O)[O-])cc41)-c1cc(S(=O)(=O)[O-])ccc1-3)c1ccc(S(=O)(=O)[O-])cc21.[Cu+2].[Na+]" : call = ?
a: No

###

- System: UO-31 renal
- Assay Remarks: NCI tumour cell line growth inhibition, 48 h
Would you mind telling me the reported TGI of each entry?
Please give a number only; it is taken to be in µM.

For "O=C(c1ccccc1)c1cc(Cl)ccc1OCCCCN1CCN(CCCCOc2ccc(Cl)cc2C(=O)c2ccccc2)CC1" the compound record lists TGI as 15.1

For "Cc1ccc2c(n1)C(=O)c1[nH]c3ccccc3c1C2=O" the compound record lists TGI as 10.7

For "Cc1nc2ccccc2c(=O)n1NC(=O)c1ccc(CS)cc1" the compound record lists TGI as 29.9

For "COc1ccc(/C=C(/C(=O)c2ccc(Cl)cc2)N2C=CC=CC2=C(C#N)C#N)cc1OC" the compound record lists TGI as 3.44

For "Cc1ccc(NC(=O)c2c(C)nc(=O)n3c2N(/N=C/c2ccc(Cl)cc2)CC3)cc1" the compound record lists TGI as 24

For "C=C(C)[C@@]12OC3(/C=C/C=C/CCCCC)O[C@@H]1[C@@H]1[C@@H]4O[C@]4(CO)[C@@H](O)[C@]4(O)C(=O)C(C)=C[C@H]4[C@@]1(O3)[C@H](C)[C@H]2OC(=O)c1ccccc1" the compound record lists TGI as 1.85

For "C/C1=C\CC[C@@]2(C)O[C@@H]2[C@H]2OC(=O)[C@@H](CN(C)C)[C@@H]2CC1" the compound record lists TGI as 5.95

For "CC(C)c1ccc(Nc2ccc3c(OCCCN4CCN(C)CC4)cccc3n2)cc1" the compound record lists TGI as 27.8

For "C/C(=C\CCc1ccoc1)CC/C=C(\C)CCCC1=CC(=O)OC1" the compound record lists TGI as 48.7

For "O=c1[nH]c(-c2ccc3ccccc3c2)nc2ccccc12" the compound record lists TGI as 60.9

For "CC(=O)OCc1cc(CCC(=O)NCCNc2c3ccccc3nc3ccccc23)cc(COC(C)=O)c1O[Si](C)(C)C(C)(C)C" the compound record lists TGI as 31.1

For CC(C)(C)C(=O)OCOP(=O)(OCOC(=O)C(C)(C)C)C1CCCN(O)C1=O (stereo not drawn) the compound record lists TGI as 6.41

For "COc1ncnc(C2CC2)c1-c1ncc2cnn(Cc3ccc(-c4nc(C(F)(F)F)cn4C(C)C)cc3)c2n1" the compound record lists TGI as 36.7

For "C[C@H]1c2cccc(O)c2C(O)=C2C(=O)[C@]3(O)C(O)=C(C(N)=O)C(=O)[C@@H](N(C)C)[C@@H]3[C@@H](O)[C@@H]21" the compound record lists TGI as 15.1

For "C#Cc1cccc(Nc2ncnc3cc(OC)c(OCCCCCCC(=O)NO)cc23)c1" the compound record lists TGI as 2.69

For "COC(=O)C1=C(c2ccc3c(c2)OCO3)O[C@H](c2cc(OC)c(OC)c(OC)c2)[C@H]1COC(C)=O" the compound record lists TGI as 31.6

For "COc1cc(-c2cc(=O)c3c(OC)c(OC)c(OC)c(OC)c3o2)c(OC)c(OC)c1OC" the compound record lists TGI as 88.6
